- System: MDA-MB-231 breast
- assay remarks: NCI-60 one-dose screen, 48 h (100 = growth as untreated, 0 = no growth, -100 = all killed)
- condition set: 10 µM unless noted
This is part of a sample that, as a whole, favours compounds with a hit. Of some 83,000 tested, about 20% had one in any assay.
value type: growth (%)
Your answer is read as %, so omit the unit and give the number.

Example compounds with recorded growth:
| chem smiles | target of assay | growth (%) |
| --- | --- | --- |
| O=C(Nc1ccc2c(c1)C(=O)c1ccccc1-2)c1ccccc1 | MDA-MB-231 breast | 81.9 |
| Cc1nn(-c2nc3ccccc3s2)c(C)c1Oc1ccccc1O | MDA-MB-231 breast | 70.8 |
| COc1cnc2c(c1)C(=O)c1c-2n(CCCN2CCNCC2)c(=O)c2cc(F)ccc12 | MDA-MB-231 breast | 9.36 |
| CCOC(=O)Nc1ccc2c3c(cccc13)-c1ccccc1-2 | MDA-MB-231 breast | 35 |
| O=C(Nc1ccccc1S)c1ccccc1 | MDA-MB-231 breast | 102 |

### Prompt Please look up its growth: c1ccc(-c2n(Cc3ccc4ccccc4c3)cc[n+]2Cc2ccc3ccccc3c2)cc1
### Response -82.7

====

- Tested on: HCT-15 colon
- assay remarks: NCI-60 one-dose screen, 48 h (100 = growth as untreated, 0 = no growth, -100 = all killed)
- condition set: 10 µM unless noted
This is part of a sample that, as a whole, favours compounds with a hit. Of some 83,000 tested, about 20% had one in any assay. The source made the active and inactive calls. How the source made its calls: active means growth percent below 10; inactive means the rest.
Each entry below carries its reported growth.

| molecule | experimental value |
| --- | --- |
| COc1cc(/C=C/C(=O)CC(=O)/C=C/c2ccc(OC(=O)CCNC34CC5CC(CC(C5)C3)C4)c(OC)c2)ccc1OC(=O)CCNC12CC3CC(CC(C3)C1)C2 | 46.9% (inactive) |
| O=C(Nc1cccc(-n2cc(-c3ccncc3)c(-c3cc(O)cc(Cl)c3)n2)c1)Nc1ccc(Cl)c(Cl)c1 | -25.3% (active) |
| N/C(=N\C(N)=N\c1nc2ccccc2s1)c1ccnc(Cl)c1 | 29.9% (inactive) |

### Prompt Request body: readout growth, system HCT-15 colon, query O=C1Nc2ccc(C(=O)O)c(O)c2C1=O . Return the value.
### Response 110% (inactive)

### Prompt Request body: readout growth, system HCT-15 colon, query COc1cc(C2CC(c3ccc(C)cc3)=NN2C=O)ccc1OCCN(C)C (centres undefined) . Return the value.
### Response 76% (inactive)

### Prompt Request body: readout growth, system HCT-15 colon, query O=[N+]([O-])c1cc([N+](=O)[O-])c(N2CCCC2)cc1NN=C(c1ccc(O)cc1)c1ccc(O)cc1 . Return the value.
### Response 46.9% (inactive)

### Prompt Request body: readout growth, system HCT-15 colon, query Cc1sc2nc(N3CCCCC3)[nH]c(=O)c2c1C . Return the value.
### Response 103% (inactive)

### Prompt Request body: readout growth, system HCT-15 colon, query Cn1ccnc1C(=O)/C=C/c1ccc(C(=O)Nc2nc3ccccc3[nH]2)cc1 . Return the value.
### Response 24.3% (inactive)

### Prompt Request body: readout growth, system HCT-15 colon, query NC(=O)NS(=O)(=O)c1ccc(N2N=C(C(F)(F)F)CC2c2cc(C(F)(F)F)cc(C(F)(F)F)c2)cc1 (centres undefined) . Return the value.
### Response 62.9% (inactive)
